- experimental-target: Steryl-sulfatase (Homo sapiens, UniProt P08842)
- Sequence (P08842 whole entry): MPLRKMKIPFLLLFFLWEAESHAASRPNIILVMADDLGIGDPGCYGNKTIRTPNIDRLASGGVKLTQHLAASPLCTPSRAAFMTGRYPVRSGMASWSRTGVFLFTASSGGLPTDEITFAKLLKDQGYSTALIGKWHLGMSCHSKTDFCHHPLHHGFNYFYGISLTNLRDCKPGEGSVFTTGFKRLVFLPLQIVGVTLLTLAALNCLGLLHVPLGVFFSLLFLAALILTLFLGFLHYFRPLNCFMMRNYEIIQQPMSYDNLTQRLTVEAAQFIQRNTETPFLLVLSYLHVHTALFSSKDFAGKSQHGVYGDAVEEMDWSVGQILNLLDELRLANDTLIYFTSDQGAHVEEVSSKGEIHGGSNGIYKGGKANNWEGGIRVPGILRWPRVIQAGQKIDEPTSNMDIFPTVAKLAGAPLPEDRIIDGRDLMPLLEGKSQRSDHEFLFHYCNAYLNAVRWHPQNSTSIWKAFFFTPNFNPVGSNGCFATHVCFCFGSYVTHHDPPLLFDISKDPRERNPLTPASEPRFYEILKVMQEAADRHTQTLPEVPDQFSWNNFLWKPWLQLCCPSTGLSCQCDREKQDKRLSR
- protocol-description: Inhibition of estrone sulfatase (unknown origin) transfected in HEK293 cells using [3H]E1S as substrate incubated for 2 hrs by liquid scintillation counting method
- Type: cell-based
Kindly state pIC50 for each of the entries shown.
Give bare numbers, as −log10 of the molar value.

Some solved entries appear below for comparison.
{"molecule": "C[C@]12CC[C@H]3[C@@H](CC=C4CC(OS(N)(=O)=O)CC[C@@]43C)[C@@H]1CC[C@@H]2C(O)Cc1ccccc1 (stereo not given in full)", "pIC50": 6.40}
{"molecule": "C[C@]12CC[C@@H]3c4ccc(OS(N)(=O)=O)cc4CC[C@H]3[C@@H]1CC[C@@]2(O)Cc1ccccc1", "pIC50": 8.85}
{"molecule": "CC(C)(C)c1ccc(C[C@]2(O)CC[C@H]3[C@@H]4CC=C5CC(OS(N)(=O)=O)CC[C@]5(C)[C@H]4CC[C@@]32C)cc1 (stereo not given in full)", "pIC50": 7.85}
{"molecule": "C[C@]12CC[C@@H]3c4ccc(O)cc4CC[C@H]3[C@@H]1CC[C@@]2(O)Cc1ccc(-c2ccccc2C(F)(F)F)cc1", "pIC50": 7.68}

Recorded result, CC(C)(C)c1ccc(CC(O)[C@H]2CC[C@H]3[C@@H]4CC=C5CC(OS(N)(=O)=O)CC[C@]5(C)[C@H]4CC[C@]23C)cc1 (stereo not given in full) , pIC50: 6.40

====

- experimental-target: Steryl-sulfatase (Homo sapiens)
- Sequence (P08842 whole entry): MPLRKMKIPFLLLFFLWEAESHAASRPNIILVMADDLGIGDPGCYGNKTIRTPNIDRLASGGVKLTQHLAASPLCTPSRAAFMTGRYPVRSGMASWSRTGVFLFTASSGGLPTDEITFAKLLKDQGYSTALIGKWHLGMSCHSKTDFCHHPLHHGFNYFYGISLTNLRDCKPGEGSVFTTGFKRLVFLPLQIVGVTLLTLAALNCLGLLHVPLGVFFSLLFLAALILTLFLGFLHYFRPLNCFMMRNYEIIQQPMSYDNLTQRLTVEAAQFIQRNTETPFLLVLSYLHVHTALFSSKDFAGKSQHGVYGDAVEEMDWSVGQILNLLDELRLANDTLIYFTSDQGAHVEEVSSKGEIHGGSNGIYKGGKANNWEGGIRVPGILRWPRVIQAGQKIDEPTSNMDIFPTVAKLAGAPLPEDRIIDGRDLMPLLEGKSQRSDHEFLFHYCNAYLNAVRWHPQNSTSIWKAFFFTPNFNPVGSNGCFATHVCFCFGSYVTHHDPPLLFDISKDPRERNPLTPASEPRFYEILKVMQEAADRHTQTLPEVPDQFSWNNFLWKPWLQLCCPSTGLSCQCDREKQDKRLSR
- protocol-description: Inhibition of recombinant human estrone sulfatase expressed in CHO cells using 4-methylumbelliferyl sulfate as substrate by Hanes plot analysis
- Type: cell-based
assay-metric: Ki (nM)
One number for each entry, in nM.

The measured Ki that O=C(NN1[C@@H]2CC[C@H]1CC(C(=O)OCc1ccccc1)C2)NS(=O)(=O)c1ccc(Cl)cc1 (stereo partly specified) showed for Steryl-sulfatase (Homo sapiens) is 890

====

- experimental-target: Steryl-sulfatase (Homo sapiens, UniProt P08842)
- protocol-description: Inhibition of human placental microsomal estrone sulfatase using [3H]E1S as substrate incubated for 30 mins
Would you mind telling me the reported IC50 of each entry?
Give bare numbers, in nM.

Previously resolved entries follow.
{"structure-as-smiles": "CSc1cc2c(cc1OS(N)(=O)=O)CC[C@@H]1[C@@H]2CC[C@]2(C)CCC[C@@H]12", "endpoint-unit": "nM", "IC50": 44}
{"structure-as-smiles": "C[C@]12CC[C@@H]3c4ccc(OS(N)(=O)=O)cc4CC[C@H]3[C@@H]1CC(=O)N(Cc1ccccc1)C2=O", "endpoint-unit": "nM", "IC50": 1}
{"structure-as-smiles": "C=CCN1C(=O)C[C@H]2[C@@H]3CCc4cc(OS(N)(=O)=O)ccc4[C@H]3CC[C@]2(C)C1=O", "endpoint-unit": "nM", "IC50": 1}
{"structure-as-smiles": "CCCCN1C(=O)C[C@H]2[C@@H]3CCc4cc(OS(N)(=O)=O)ccc4[C@H]3CC[C@]2(C)C1=O", "endpoint-unit": "nM", "IC50": 1}
{"structure-as-smiles": "C[C@]12CC[C@@H]3c4ccc(OS(N)(=O)=O)cc4CC[C@H]3[C@@H]1CC(=O)NC2=O", "endpoint-unit": "nM", "IC50": 1}

Working through the 4 molecules below one at a time, give IC50 for each.
1. CSc1cc2c(cc1OS(N)(=O)=O)CC[C@@H]1[C@@H]2CC[C@@]2(C)[C@H]1CC[C@@]2(O)Cc1ccc(C(C)(C)C)cc1
2. CSc1cc2c(cc1OS(N)(=O)=O)CC[C@@H]1[C@@H]2CC[C@@]2(C)[C@H]1CC[C@@]2(O)Cc1ccccc1
3. CC(C)(C)c1ccc(CN2C(=O)C[C@H]3[C@@H]4CCc5cc(OS(N)(=O)=O)ccc5[C@H]4CC[C@]3(C)C2=O)cc1
4. CSc1cc2c(cc1OS(N)(=O)=O)CC[C@@H]1[C@@H]2CC[C@]2(C)C(=O)CC[C@@H]12

A)
1. 44
2. 44
3. 1
4. 44

Sure, the documented IC50 for CCCCCCN1C(=O)C[C@H]2[C@@H]3CCc4cc(OS(N)(=O)=O)ccc4[C@H]3CC[C@]2(C)C1=O is 1

====

- experimental-target: Steryl-sulfatase (Homo sapiens, UniProt P08842)
- Sequence (P08842 whole entry): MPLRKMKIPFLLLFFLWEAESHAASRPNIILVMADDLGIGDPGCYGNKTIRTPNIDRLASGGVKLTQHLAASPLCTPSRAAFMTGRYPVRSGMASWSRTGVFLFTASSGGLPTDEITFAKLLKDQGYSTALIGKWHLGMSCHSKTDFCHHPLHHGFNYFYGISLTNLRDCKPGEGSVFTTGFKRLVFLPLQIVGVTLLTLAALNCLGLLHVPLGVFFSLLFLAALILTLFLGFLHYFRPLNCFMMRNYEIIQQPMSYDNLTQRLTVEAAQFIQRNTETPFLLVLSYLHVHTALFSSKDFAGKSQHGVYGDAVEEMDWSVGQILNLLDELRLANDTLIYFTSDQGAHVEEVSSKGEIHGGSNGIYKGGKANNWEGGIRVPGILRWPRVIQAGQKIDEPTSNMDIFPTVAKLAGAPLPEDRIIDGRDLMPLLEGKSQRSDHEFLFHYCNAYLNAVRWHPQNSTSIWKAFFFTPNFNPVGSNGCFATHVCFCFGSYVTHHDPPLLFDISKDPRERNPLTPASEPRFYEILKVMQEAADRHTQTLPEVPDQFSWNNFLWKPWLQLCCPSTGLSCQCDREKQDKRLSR
- protocol-description: Inhibition of estrone sulfatase in human JEG-3 cells using [3H]-estrone sulphate as substrate incubated for 4 hrs by liquid scintillation counting method
- Type: cell-based
assay-metric: pIC50
Give bare numbers, as −log10 of the molar value.

Record C[C@]12CC[C@@H]3c4ccc(OS(N)(=O)=O)cc4CC[C@H]3[C@@H]1CCC2=O [EMATE] . Reported pIC50: 8.49

====

- experimental-target: Steryl-sulfatase (Homo sapiens, UniProt P08842)
- Sequence (P08842 whole entry): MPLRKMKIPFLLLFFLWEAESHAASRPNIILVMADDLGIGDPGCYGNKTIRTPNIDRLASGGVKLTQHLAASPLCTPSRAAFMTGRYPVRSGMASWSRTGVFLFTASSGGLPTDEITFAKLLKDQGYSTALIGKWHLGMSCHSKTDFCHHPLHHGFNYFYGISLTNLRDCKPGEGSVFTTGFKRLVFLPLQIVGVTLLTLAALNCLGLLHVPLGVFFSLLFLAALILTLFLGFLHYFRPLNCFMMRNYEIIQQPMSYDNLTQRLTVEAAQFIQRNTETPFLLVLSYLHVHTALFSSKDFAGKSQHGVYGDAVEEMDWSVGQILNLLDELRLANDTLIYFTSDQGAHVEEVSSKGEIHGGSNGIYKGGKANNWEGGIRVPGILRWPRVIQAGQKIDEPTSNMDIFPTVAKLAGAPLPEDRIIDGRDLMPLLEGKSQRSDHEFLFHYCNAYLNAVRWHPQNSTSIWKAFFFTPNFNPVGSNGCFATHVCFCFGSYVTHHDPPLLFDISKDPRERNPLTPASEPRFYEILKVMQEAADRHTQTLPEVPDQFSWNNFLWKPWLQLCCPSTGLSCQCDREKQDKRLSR
- protocol-description: Non-competitive inhibition of human placental microsomal estrone sulfatase using [3H]E1S as substrate incubated for 20 mins by Lineweaver-Burk plot analysis
assay-metric: pKi
Numbers only, as −log10 of the molar value.

Memo: COc1c2c(c(O)c3c1C(=O)c1c(cc(O)c(C)c1O)C3=O)-c1c(cc(/C=N/NC(=O)NC3CCCCC3)c(C(=O)O)c1O)CC2 , reported pKi: 6.46

Data provenance is ChEMBL document CHEMBL3804784.
